Kindly supply the reported AB conc. (lowest concentration of antibody that gave a clear signal above background) values for the records listed here.
- system: T1, JCV major capsid protein VP1, wild type (John Cunningham virus (JCV), UniProt P03089 1-354)
- T1 construct: also called WT VP1; wild type VP1
- method: ELISA, plates coated with pseudovirus, purified antibody

[ask] I am curious: what AB conc. (lowest concentration of antibody that gave a clear signal above background) value has been reported for 1E8 (antibody, V domains shown) VH: QVQLVESGGGLVKPGGSLRLSCAASGFTFSDHYMSWIRQAPGKGLEWVSYISTSGSTIYYADSVKGRFTISRDNAKNSLYLQMNSLRAEDTAVYYCASDYYDNSGWNYWGQGTLVTVSS VL: DVVMTQSPLSLPVTLGQPASISCRSSQSLVYSDGNTYLNWFQQRPGQSPRRLIYKVSDRDSGVPDRFSGSGSGTDFTLRISRVEAEDVGVYYCMQGSHWPRTFGQGTKVEIK ?
[reply] < 2.5 ng/mL

[ask] # input binder: 1H10 (antibody, V domains shown) VH: EVQLLESGGGLVQPGGSLRLSCAASGFTLSTYAMSWVRQAPGKGLEWVSAISGTGLSTYYADSLKGRFTISRDISKNTLYLQMSSLKAEDTAVYYCAKGLELFYFYYGMDVWGQGTTVTVSS VL: EIVLTQSPGTLSLSPGERATLSCRASQSVSSTYLAWYQQKPGQAPRLLIYGTSSRATGIPDRFSGSGSGTDFTLTISRLEPEDLAVYYCQQYGRSLIFGQGTRLEIK ; wanted: its AB conc. (lowest concentration of antibody that gave a clear signal above background)
[reply] < 22 ng/mL

[ask] I have this binder here, 3D2 (antibody, V domains shown) VH: QVQLQQWGAGLLKPSETLSLTCAVFGGSFSSYYWSWIRHPPGKGLEWIGDINHSGSTNYNPSLKSRVTLSVDTSKNQFSLKVTSVTAADTAVYYCARWGIAADYGMDVWGQGTTVTVSS VL: EIVLTQSPGTLSLSPGERATLSCRASQSVSSSYLAWYQQKPGQAPRLLIYGASSRATGIPDRFSDSGSGTDFTLTISRLEPEDFALYYCQQYGTSPWTFGQGTKVEIK , and I need its recorded AB conc. (lowest concentration of antibody that gave a clear signal above background).
[reply] < 67 ng/mL

[ask] # query: AB conc. (lowest concentration of antibody that gave a clear signal above background) of entry 2A11 (antibody, V domains shown) VH: QVQLVESGGGLVKPGGSLRLSCAASGFTFSDHYMSWIRQAPGKGLEWVSYISTSGRTIYYVDSVKGRFTISRDNAKNSLYLQMNSLRAEDMAVYYCASDYYDNVGWNYWGQGALVTVSS VL: DVVLTQSPLSLPVTLGQPASISCRSSQSLVYSDGNTYLNWFQQRPGQSPRRLIYKVSDRDFGVPDRFSGSGSGTDFTLKISRVEAEDVGIYYCMQGTHWPRTFGQGTKVEIK
[reply] < 7.4 ng/mL

[ask] Endpoint output: AB conc. (lowest concentration of antibody that gave a clear signal above background) of 1A7 (antibody, V domains shown) VH: QVQLVQSGAEVKKPGASVKVSCKASGYTFTFYDINWVRQATGQGLEWMGWMNPNSGNTGYAQNFQGRVTMTRNTSINTAYLELSSLRSEDTAVYYCARKIWVGHTTFDRWGQGTLVTVSS VL: AIQMTQSPSSLSASVGDRVTITCRASQSISGYLNWYQQKPGKAPNLLIYAASNLQSGVPSRFSGSGSGTDFTLTISSLQREDFAPYYCQQTYNIPFTFGGGTKVEIK . Value?
[reply] < 22 ng/mL

[ask] # input binder: 1A3 (antibody, V domains shown) VH: QVQLVESGGGLVKPGGSLRLSCAASEITFSDYYMSWIRQAPGKGLEWISYISTSGRTIYFADSVKGRFTISRDNAKNSLYLQMNSLRADDTAVYYCASDFYDNSGWEYWGQGTLVTVSS VL: DVVMTQSPLSLSVTLGQPASISCRSSQSLVYSDGNTYLNWFQQRPGQSPRRLIYKVSDRDSGVPDRFSGSGSGTDFTLKISRAEAEDVGVYYCMQGTHWPRTFGQGTKVEIK ; wanted: its AB conc. (lowest concentration of antibody that gave a clear signal above background)
[reply] < 2.5 ng/mL

[ask] Sample 2A6 (antibody, V domains shown) VH: QVQLQQWGAGLLKPSETLSLTCAVYGGSFSGYYWSWIRQPPGKGLEWIGDINHGGSTNYNPSLKSRVIISVDTSKNQFSLKLSSVTAADTALYYCARGWGGQVAHWFDPWGQGTLGTVSS VL: DIVMTQSPDSLALSLGERATINCKSSQSVLFSSNNQNYLAWYQQKPGQPPKLLIYWASTRESGVPDRFSGSGSGTDFTLTVSSLQAEDVAVYFCQQYYSLPYTFGQGTKLEIK — what was its AB conc. (lowest concentration of antibody that gave a clear signal above background)?
[reply] < 200 ng/mL

[ask] Find the recorded AB conc. (lowest concentration of antibody that gave a clear signal above background) belonging to 1E12 (antibody, V domains shown) VH: QVQLVESGGGLVKPGGSLRLSCTASGFTFSDHYMSWIRQAPGKGLEWVSYISTGGRTIYYADSVKGRFTISRDNAKNSLYLQMNSLRAEDTAVYYCASDYYDNVGWDYWGQGTLVTVSS VL: DVVLTQSPLSLPVTLGQPASISCRSSQSLIYSDGNTYLNWFQQRPGQSPRRLIYKVSDRDSGVPDRFSGSGSGTDFTLKISRVEAEDVGVYYCMQGTHWPRTFGQGTKVEIK and report it.
[reply] < 7.4 ng/mL
